Below are IC50 values recorded for UniProt:O60674.
Sequence (O60674 whole entry, species assumed): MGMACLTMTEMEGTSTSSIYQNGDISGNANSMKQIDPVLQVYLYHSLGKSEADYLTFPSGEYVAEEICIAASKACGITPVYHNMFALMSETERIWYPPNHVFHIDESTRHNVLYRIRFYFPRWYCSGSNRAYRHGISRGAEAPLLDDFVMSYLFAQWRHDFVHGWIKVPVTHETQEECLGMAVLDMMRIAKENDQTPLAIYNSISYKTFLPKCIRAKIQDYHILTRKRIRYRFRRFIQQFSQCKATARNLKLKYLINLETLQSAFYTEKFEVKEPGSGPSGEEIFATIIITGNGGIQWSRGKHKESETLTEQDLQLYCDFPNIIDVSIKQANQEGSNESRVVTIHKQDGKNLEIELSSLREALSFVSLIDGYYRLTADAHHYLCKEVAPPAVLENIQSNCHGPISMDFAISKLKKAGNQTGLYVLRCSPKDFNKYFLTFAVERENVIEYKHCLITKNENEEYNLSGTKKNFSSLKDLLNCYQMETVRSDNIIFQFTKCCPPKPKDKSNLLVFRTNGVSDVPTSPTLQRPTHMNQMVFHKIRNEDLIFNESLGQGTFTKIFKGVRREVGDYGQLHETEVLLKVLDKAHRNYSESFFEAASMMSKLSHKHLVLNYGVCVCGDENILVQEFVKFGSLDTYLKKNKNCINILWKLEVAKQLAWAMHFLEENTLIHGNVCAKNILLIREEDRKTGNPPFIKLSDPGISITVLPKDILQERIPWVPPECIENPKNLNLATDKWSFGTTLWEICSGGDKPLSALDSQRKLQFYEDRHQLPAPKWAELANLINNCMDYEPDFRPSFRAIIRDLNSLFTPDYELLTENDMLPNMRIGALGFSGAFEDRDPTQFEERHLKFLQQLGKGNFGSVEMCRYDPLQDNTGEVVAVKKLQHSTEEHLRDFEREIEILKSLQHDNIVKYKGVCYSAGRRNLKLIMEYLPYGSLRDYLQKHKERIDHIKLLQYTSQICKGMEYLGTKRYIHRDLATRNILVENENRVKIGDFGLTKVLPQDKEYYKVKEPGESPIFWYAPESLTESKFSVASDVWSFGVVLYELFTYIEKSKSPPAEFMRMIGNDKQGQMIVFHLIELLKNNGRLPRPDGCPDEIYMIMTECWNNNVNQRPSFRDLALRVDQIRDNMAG
Structures can show the parent of a compound that is named as a salt.

CN1CCC(Nc2nc(Nc3ccc(OC4CCCCC4)cc3)c3c(=O)[nH]cc(Br)c3n2)CC1 [Compound 233, hydrochloride] : 0.101 to 1 µM
CCc1nc(C(N)=O)c(Nc2ccc(N3CCC(N4CCN(C)CC4)CC3)c(OC)c2)nc1NC1CCOCC1 [ASP2215, gilteritinib, reference compound] : 0.011 to 0.1 µM

Qu. If you can, please state the reported IC50 value of CN1CCC(Nc2nc(Nc3ccc(Oc4ccccc4)cc3)c3c(=O)[nH]cc(Br)c3n2)CC1 .
Ans. 0.101 to 1 µM

Qu. Param item: CN1CCC(Nc2nc(Nc3ccc(Oc4ccccc4)cc3)c3c(=O)[nH]cc(Br)c3n2)CC1.Cl [Compound 226, hydrochloride]
Ans. 0.101 to 1 µM

Qu. Now this one: CN1CCC(Nc2nc(Nc3ccc(Oc4cccc(F)c4)cc3)c3c(=O)[nH]cc(Br)c3n2)CC1
Ans. 0.101 to 1 µM

Qu. Same question for Nc1nc(Nc2ccc3c(c2)CC[C@@H](N2CCCC2)CC3)nn1-c1cc2c(nn1)-c1ccccc1CCC2 [Compound R428, reference compound] please.
Ans. 0.101 to 1 µM

Qu. Queued: CN1CCC(Nc2nc(Nc3ccc(OC4CCCC4)cc3)c3c(=O)[nH]cc(Br)c3n2)CC1
Ans. 0.101 to 1 µM

Qu. Another: CN1CCC(Nc2nc(Nc3ccc(Oc4ccc(F)c(F)c4)cc3)c3c(=O)[nH]cc(Br)c3n2)CC1 [Compound 241, hydrochloride]
Ans. 1 to 10 µM

Qu. Can you handle CN1CCC(Nc2nc(Nc3ccc(Oc4cccc(F)c4)cc3)c3c(=O)[nH]cc(Br)c3n2)CC1.Cl [Compound 238, hydrochloride] next?
Ans. 0.101 to 1 µM

###

target: Truncated human Axl (Homo sapiens, UniProt P30530); test: Kinase inhibition assay (inhibition of enzymatic Axl kinase activity); type: biochemical; conditions: Table 2, range of IC50 value; read-out: Axl
Sequence (P30530 26-894 limits assumed): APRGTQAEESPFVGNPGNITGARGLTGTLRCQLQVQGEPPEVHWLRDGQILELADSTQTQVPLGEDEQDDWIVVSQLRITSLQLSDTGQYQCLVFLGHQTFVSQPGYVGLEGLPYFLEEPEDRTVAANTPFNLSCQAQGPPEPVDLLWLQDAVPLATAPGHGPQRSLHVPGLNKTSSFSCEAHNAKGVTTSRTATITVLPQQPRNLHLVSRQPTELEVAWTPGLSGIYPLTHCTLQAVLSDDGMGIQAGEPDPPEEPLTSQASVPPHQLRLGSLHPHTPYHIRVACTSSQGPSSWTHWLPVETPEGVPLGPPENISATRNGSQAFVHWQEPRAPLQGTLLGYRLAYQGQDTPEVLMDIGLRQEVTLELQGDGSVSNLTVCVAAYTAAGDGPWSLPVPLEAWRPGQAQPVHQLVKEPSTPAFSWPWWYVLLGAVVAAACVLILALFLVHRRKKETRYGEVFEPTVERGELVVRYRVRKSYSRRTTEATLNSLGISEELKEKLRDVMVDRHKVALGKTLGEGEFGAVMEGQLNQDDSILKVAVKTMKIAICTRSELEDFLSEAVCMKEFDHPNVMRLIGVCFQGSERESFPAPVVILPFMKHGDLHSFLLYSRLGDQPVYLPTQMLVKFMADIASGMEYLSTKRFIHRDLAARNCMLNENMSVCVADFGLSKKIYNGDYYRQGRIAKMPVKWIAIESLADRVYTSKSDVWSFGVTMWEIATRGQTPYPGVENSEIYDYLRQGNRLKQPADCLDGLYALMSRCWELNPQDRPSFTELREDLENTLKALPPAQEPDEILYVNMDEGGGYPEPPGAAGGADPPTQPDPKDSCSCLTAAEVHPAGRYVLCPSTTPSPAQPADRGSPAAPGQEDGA
pIC50: −log10 of the molar value. Structures can show the parent of a compound that is named as a salt.
pIC50 for assorted molecules

Here are 2 molecules together with their reported answers.
CN1CCC(Nc2nc(Nc3ccc(OC4CCCCC4)cc3)c3c(=O)[nH]cc(Br)c3n2)CC1 [Compound 233, hydrochloride] : 6.00 to 7.00
CN1CCC(Nc2nc(Nc3ccc(Oc4cccc(F)c4)cc3)c3c(=O)[nH]cc(Br)c3n2)CC1 : 7.00 to 7.96

Qu. Data request, read-out pIC50, for CN1CCC(Nc2nc(Nc3ccc(Oc4ccc(F)c(F)c4)cc3)c3c(=O)[nH]cc(Br)c3n2)CC1 [Compound 241, hydrochloride]
Ans. 7.00 to 7.96

###

Measured IC50, listed per entry.
molecular target: Truncated human Axl (Homo sapiens); assay: Kinase inhibition assay (inhibition of enzymatic Axl kinase activity); type: biochemical; conditions: Table 1; read-out: Axl (IC50)
Counter-ions that a name gives are not always drawn.

CN1CCC(Nc2nc(Nc3ccc(OC4CCCCC4)cc3)c3c(=O)[nH]cc(Cl)c3n2)CC1 : 101 to 1000 nM

Qu. What IC50 value was documented for this compound, CN1CCC(Nc2nc(Nc3ccc(OCc4ccccc4)cc3)c3c(=O)[nH]cc(Br)c3n2)CC1 [Compound 234, hydrochloride] ?
Ans. 101 to 1000 nM

Qu. Request: CN1CCC(Nc2nc(Nc3ccc(OCc4ccccc4)cc3)c3c(=O)[nH]cc(Br)c3n2)CC1 [Compound 221]
Ans. 101 to 1000 nM

Qu. How about this compound: CC(C)c1ccc(Oc2ccc(Nc3nc(NC4CCN(C)CC4)nc4c(Br)c[nH]c(=O)c34)cc2)cc1 [Compound 236, hydrochloride]
Ans. 11 to 100 nM

Qu. Try this compound too: Cc1ccccc1Oc1ccc(Nc2nc(NC3CCN(C)CC3)nc3c(Br)c[nH]c(=O)c23)cc1 [Compound 239, hydrochloride]
Ans. 11 to 100 nM

Qu. Next: Cc1cc(Nc2nc(NC3CCN(C)CC3)nc3c(Br)c[nH]c(=O)c23)ccc1Oc1cccc(F)c1 [Compound 244, hydrochloride]
Ans. 11 to 100 nM
